- ASSAYED_SYSTEM: HLA-B*15:01
- ASSAY_EXPLANATION: IEDB peptide-MHC binding, purified MHC/direct/fluorescence; filed as Kd, often an IC50 or EC50 that approximates it; bounds were set here for any values at or beyond the usual limits of such assays
- TEST_PARAMETERS: source organism: Campylobacter jejuni RM1221
pKd: −log10 of the molar value.
OBSERVATION_TYPE: pKd

[in] Answer with reported pKd of `KNDAVYIGY`
[out] ≤ 4.70

---

- ASSAYED_SYSTEM: HLA-A*02:01
- ASSAY_EXPLANATION: IEDB peptide-MHC binding, purified MHC/direct/fluorescence; filed as Kd, often an IC50 or EC50 that approximates it; bounds were set here for any values at or beyond the usual limits of such assays
- TEST_PARAMETERS: source organism: Yersinia pestis
OBSERVATION_TYPE: Kd (nM)
Give bare numbers, in nM.

[in] Quickly give me recorded Kd for `LLIDDSFSS`
[out] 650

Each recorded value in this set is attributed to the Immune Epitope Database (IEDB).
